Target: Histone deacetylase 8 (Homo sapiens, UniProt Q9BY41)
Sequence (Q9BY41 whole entry): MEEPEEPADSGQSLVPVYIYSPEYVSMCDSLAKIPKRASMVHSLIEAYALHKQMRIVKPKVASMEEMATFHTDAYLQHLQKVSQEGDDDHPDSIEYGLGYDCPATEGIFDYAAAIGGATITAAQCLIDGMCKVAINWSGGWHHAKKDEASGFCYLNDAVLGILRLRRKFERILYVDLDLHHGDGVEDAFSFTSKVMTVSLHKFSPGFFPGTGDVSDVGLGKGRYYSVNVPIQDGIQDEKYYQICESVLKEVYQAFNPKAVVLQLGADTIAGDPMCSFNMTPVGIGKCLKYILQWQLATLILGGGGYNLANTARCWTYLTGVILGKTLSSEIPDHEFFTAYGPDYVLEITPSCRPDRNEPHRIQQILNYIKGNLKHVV
Assay: Competitive inhibition of human recombinant HDAC8 by Michaelis-Menten equation analysis
metric: Ki (nM)
# output: bare number, implied unit nM

The compound identified as O=c1c(O)ccccc1-c1ccccc1 registered its Ki at 0.53

* * *

Species: Homo sapiens
Test: Selectivity ratio of Ki for human recombinant HDAC1 to Ki for human recombinant HDAC2
# Ratio Ki per record follows

So for O=c1c(O)ccccc1-c1ccc2ccccc2c1 , the logged Ratio Ki turned out to be > 100

Sure, the documented Ratio Ki for COc1ccc(OC)c(-c2ccccc(O)c2=O)c1 is > 100

Record COc1ccc(-c2ccccc(O)c2=O)c(OC)c1OC . Reported Ratio Ki: > 100

* * *

Target: Histone deacetylase 8 (Homo sapiens)
Test: Inhibition of human recombinant HDAC8 by Michaelis-Menten equation analysis
metric: Ki (nM)

Before answering, review these 4 worked examples.
[[record]]
molecule = "O=c1c(O)ccccc1-c1ccccc1"
value_units = "nM"
endpoint_result = 1.09

[[record]]
molecule = "COc1cccc(C(C)C)cc1=O"
value_units = "nM"
endpoint_result = 7.87

[[record]]
molecule = "COc1ccc(-c2cccc(O)c(=O)c2)cc1"
value_units = "nM"
endpoint_result = 2.38

[[record]]
molecule = "CC(C)c1cccc(=O)c(O)c1"
value_units = "nM"
endpoint_result = 178


[I] CCC(C)c1cccc(O)c(=O)c1 (stereo unspecified)
[II] COc1ccc(-c2ccccc(O)c2=O)cc1
Compare the recorded Ki of I and II ; state which is larger. Return value: the label identifying the chosen record.
II
(II: 83.8 nM, I: 2.27 nM)

* * *

Each entry below carries its recorded GI50 at 72 h.
Assay: Cytotoxicity against HDF after 72 hrs by MTS assay
Conditions: human, HDF cells

Observe how each entry below is paired with its result.
[[record]]
compound = "O=c1cc(C2CCCC2)cccc1O"
endpoint_result = "> 100 µM"

[[record]]
compound = "O=c1cc(-c2ccccc2)cccc1O"
endpoint_result = "> 100 µM"

[[record]]
compound = "O=c1c(O)ccccc1-c1ccc2ccccc2c1"
endpoint_result = "93.1 µM"

[[record]]
compound = "COc1ccc(OC)c(-c2ccccc(O)c2=O)c1"
endpoint_result = "> 100 µM"

[[record]]
compound = "CCC(C)c1cccc(O)c(=O)c1 (centres undefined)"
endpoint_result = "> 100 µM"

[[record]]
compound = "COc1ccc(OC)c(-c2cccc(O)c(=O)c2)c1"
endpoint_result = "> 100 µM"

[[record]]
compound = "CC(C)c1cccc(=O)c(O)c1"
endpoint_result = "> 100 µM"

[[record]]
compound = "O=c1c(O)ccccc1-c1ccccc1"
endpoint_result = "96.5 µM"


Briefly, GI50 at 72 h measured for COc1cccc(C(C)C)cc1=O : > 100 µM

Entry under test: COc1ccc(-c2cccc(O)c(=O)c2)cc1 . Its GI50 at 72 h was > 100 µM

Entry O=C(CCCCCCC(=O)Nc1ccccc1)NO ; GI50 at 72 h = 18.9 µM

Form: compound = CC(C)(C)c1cccc(O)c(=O)c1 ; GI50 at 72 h = > 100 µM

Field GI50 at 72 h (entry COc1ccc(-c2ccccc(O)c2=O)c(OC)c1OC ) reads > 100 µM

// field: GI50 at 72 h; key: COc1ccc(-c2ccccc(O)c2=O)cc1 ; value = > 100 µM

* * *

Species on record: Homo sapiens
Assay: Selectivity ratio of Ki for human recombinant HDAC1 to Ki for human recombinant HDAC2
Recorded Ratio Ki by entry

[[record]]
smi = "COc1ccc(OC)c(-c2cccc(O)c(=O)c2)c1"
endpoint_result = "> 100"


# Ratio Ki of O=c1cc(C2CCCC2)cccc1O = > 100

Entry CC(C)(C)c1cccc(O)c(=O)c1 , Ratio Ki reported as > 100

Reported Ratio Ki for COc1ccc(-c2ccccc(O)c2=O)cc1 was > 100

Origin of values: ChEMBL document CHEMBL2407068
